# experiment-notes: binders from COS7 lysate, DM2A8 probe, primary screen, torsin A project, cell lysate, small-molecule microarray, fluorescence 635/667 (AID 1065)
# settings: higher = more signal, COS7 lysate expressing mutant human TOR1A
measurement-name: composite z-score
Answer with a bare number; do not write a unit.

Some entries whose results are on file:
COc1cc(NN2C(C(O)c3ccco3)C=CC3C(=O)N(C)C(=O)C32)cc(OC)c1OC (centres undefined) : 0.504
COc1cc(C(O)C2C=CC3C(=O)N(C)C(=O)C3N2Nc2ccccc2)cc(OC)c1OC (centres undefined) : 0.723
C=CCNC(=O)[C@@H]1[C@H]2C(=O)O[C@H](c3ccccc3)[C@H](c3ccccc3)N2[C@H](c2ccc(OCCO)cc2)[C@@]12C(=O)N(C(=O)OCCOC)c1ccc(C#Cc3ccc(OC)cc3)cc12 : 0.1

Moving on to another compound below.
May I ask what composite z-score has been recorded for [N-]=[N+]=Nc1ccccc1C[C@@]1(C(=O)N2CCOCC2)N=C(c2ccc(OCCCO)cc2)O[C@@H]1c1ccccc1 ?
-0.121
